- Tested on: DoHH2 Cells (wildtype for EZH2, MEF2B and MLL2)
- run description: Cell viability of lymphoma cell lines, DoHH-2
- Format: cell-based
- Design: concentration or dose not given beside the values
- reported conditions: Table 5
attribute measured: Effect on Cell Viability (% survival) DoHH2 Cells

molecule="OC(c1cc(-c2ccccc2)nc2c(Cl)cc(Cl)cc12)C1CCCCN1 (stereo not drawn) [Compound 42]" result=30%
molecule="OC(c1cc(-c2ccc(Cl)cc2)nc2ccccc12)C1CCCCN1 (stereo not drawn) [Compound 40]" result=100%
molecule="Cc1c(Cl)ccc2c(C(=O)CNCc3ccccc3)cc(-c3ccc(Cl)cc3)nc12 [Compound 49]" result=70%
molecule="CCCN(CCC)CC(O)c1cc(-c2ccc(Cl)cc2)nc2c(C)c(Cl)ccc12 (stereo not drawn) [Compound 46]" result=100%
molecule="CC(=O)c1cc(-c2ccc(Cl)c(Cl)c2)nc2c(Cl)cc(Cl)cc12 [Compound 32]" result=100%
molecule="CC(O)c1cc(-c2ccccc2)nc2ccccc12 (stereo not drawn) [Compound 26]" result=100%
molecule="OC(CBr)c1cc(-c2ccc(Cl)cc2)nc2c(-c3ccccc3)cccc12 (stereo not drawn) [Compound 36]" result=100%
molecule="CCN(CC)CC(O)c1cc(-c2ccc(Cl)cc2)nc2cc(Cl)ccc12 (stereo not drawn) [Compound 45]" result=100%
molecule="O=C(CBr)c1cc(-c2ccc(Cl)cc2)nc2cc(Cl)ccc12 [Compound 30]" result=60%

====

Listing of entries alongside the reported Effect on Cell Viability (% survival) WSU-DLCL2 Cells.
- Tested on: WSU-DLCL2 Cells (EZH2 mutation Y641F)
- run description: Cell viability of lymphoma cell lines, WSU-DLCL2
- Assay type: cell-based, human
- Set-up: concentration or dose not given beside the values
- reported conditions: Table 5
attribute measured: Effect on Cell Viability (% survival) WSU-DLCL2 Cells (%)

molecule="O=C(Cl)c1cc(-c2ccc(Cl)cc2)nc2c(-c3ccccc3)cccc12 [Compound 37]" measured_number=80
molecule="CCN(CC)CC(O)c1cc(-c2ccc(Cl)cc2)nc2cc(Cl)ccc12 (stereo not drawn) [Compound 45]" measured_number=80
molecule="OC(c1cc(-c2ccc(Cl)cc2)nc2cc(Cl)ccc12)N1CCCCC1 (stereo not drawn) [Compound 38]" measured_number=80
